Value source: PubChem BioAssay (EPA / NIEHS)

Read-out: CYP3A5 (gene 1577)
Assay: LTEA_HepaRG_CYP3A5: Life Technologies and Expression Analysis (LTEA) Assay for CYP3A5 using HepaRG (AID 2283493)
Details: mRNA level, 48 h; actives raise or lower the signal
Protocol: LTEA_HepaRG is a cell based, multiplexed-readout assay that uses HepaRG, a human liver cell line, with measurements taken at 48 hours after chemical dosing on a 96-well plate.LTEA_HepaRG_CYP3A5 is one of 102 assay component(s) measured in the LTEA HepaRG cell culture assay. It is a marker of NR mediated metabolism.Data from the assay component LTEA_HepaRG_CYP3A5 was analyzed into 1 endpoint. […]
Calls of active or inactive are those of the source. How the source made its calls: active means hit-call score of the fitted dose curve at least 0.9, where 1 is the maximum; inactive means score below 0.9.
Outcomes: 1.0 = active, 0.0 = inactive

# molecule, assigned-category
measured = [
    ("COC(=O)c1ccccc1O", 0.0),
    ("Cc1ccc(C)c(O)c1", 0.0),
    ("CCOC(=O)c1ccc(C2CCC(NC[C@H](O)COc3ccc(O)c(NS(C)(=O)=O)c3)CC2)cc1 (stereo not given in full)", 0.0),
    ("CCOCCOCCOCCO", 0.0),
    ("C1=CCCC=CCCC=CCC1", 0.0),
    ("CC1=CC(=O)CC(C)(C)C1", 0.0),
    ("CCNc1ccccc1", 0.0),
    ("Cc1c(-c2cccnc2)c2ccccc2n1CCCCC(=O)O", 0.0),
    ("Cc1ccc(N)cc1O", 0.0),
    ("COc1ccc(/C=C/S(=O)(=O)NC(=O)c2ccc(C)cc2Cl)cc1", 0.0),
    ("CC[C@H]1OC(=O)[C@H](C)[C@@H](O[C@H]2C[C@@](C)(OC)[C@@H](O)[C@H](C)O2)[C@H](C)[C@@H](O[C@@H]2O[C@H](C)C[C@H](N(C)C)[C@H]2O)[C@](C)(O)C[C@@H](C)C(=O)[C@H](C)[C@@H](O)[C@]1(C)O", 0.0),
    ("CCCCCCc1ccc(O)cc1O", 0.0),
    ("Cn1c(=O)c2c(ncn2C)n(C)c1=O", 0.0),
    ("CCCN(C1CCN(C(=O)C2CCNCC2)CC1)[C@@H]1CCc2ccc(OC)cc2C1", 1.0),
    ("O=C1CCC(N2C(=O)c3ccccc3C2=O)C(=O)N1 (stereo not given)", 0.0),
    ("COc1cccc(-c2ccc(/C=C\\CN3CCCCCC3)cc2Cl)c1", 1.0),
    ("CCCCCCCCCCCCCCCO", 0.0),
    ("Cn1c(=O)cc(Oc2ccc(F)cc2F)c2cnc(NCC(C)(C)O)nc21", 1.0),
    ("COc1ccc(-n2nc(C(F)F)cc2-c2ccc(S(C)=O)cc2)cc1 (stereo not given)", 0.0),
    ("Cc1ccc(S(=O)(=O)O)cc1C", 0.0),
    ("CCCCC(CC)COC(=O)c1ccc(C(=O)OCC(CC)CCCC)cc1 (stereo not given)", 0.0),
    ("Fc1ccccc1[C@@H](F)COC1CCC(Nc2ncnc3[nH]ncc23)CC1 (stereo not given in full)", 0.0),
    ("CC(C)CCCCCCOC(=O)c1ccc(C(=O)OCCCCCCC(C)C)c(C(=O)OCCCCCCC(C)C)c1", 0.0),
    ("CCCCCCCCCCCCc1ccccc1", 0.0),
    ("C[C@](N)(Cc1ccc(O)c(O)c1)C(=O)O", 0.0),
]
